Cited source: PubChem BioAssay (NCI)

test system: MOLT-4 leukemia; assay: NCI tumour cell line growth inhibition, 48 h
Measured GI50 of individual entries
measure.name: GI50

structure.notation | measure.name | reported
O=c1[nH]c2ccc(N=Cc3c(O)[nH]c4ccccc34)cc2[nH]1 | GI50 | > 25 µM
COc1ccc(CN2C(=O)C(Cl)=C(Nc3cccc(O)c3)C2=O)cc1 | GI50 | 0.501 µM
FC(F)(F)CNc1nccc(-c2cnn3ncccc23)n1 | GI50 | > 25 µM
O=C(O)c1sccc1O | GI50 | 34.9 µM
Nc1c(C(=O)Nc2ccccn2)sc2nc3c(cc12)CCCCC3 | GI50 | 2.32 µM
COc1ccc2c(c1OC)CO[C@@H]2[C@H]1c2c(c(Br)c3c(c2OC)OCO3)CCN1C | GI50 | 3.55 µM

###

tested on: HL-60(TB) leukemia; assay: NCI tumour cell line growth inhibition, 48 h
measure.name: log10 TGI (log10 of the value in µM)

structure.notation | log10 TGI
CSc1nc(=Nc2ccccc2)sn1-c1ccccc1 | 1.35
O=C(CNc1c(Cl)cccc1Cl)Nc1ccc(-c2nc3ccccc3s2)cc1 | 0.88
O=C1c2ccc3cc(CCl)cc(O)c3c2C(=O)c2cccc(O)c21 | 0.21
c1ccc(CSSSCc2ccccc2)cc1 | 0.51
Oc1ccc(CCl)c2cccnc12 | 1.25

###

Reported TGI values for the following molecules.
test system: IGROV1 ovarian; test: NCI tumour cell line growth inhibition, 48 h
measure.name: TGI

molecule | target.desc | measure.name | reported
Cn1cc(C2=C(c3c4n(c5ccccc35)CCN(C(N)=S)C4)C(=O)NC2=O)c2ccccc21 | IGROV1 ovarian | TGI | > 19.1 µM
O=C(NC1CCC(Br)CC1)C1CCCC(S(=O)(=O)NC2CCCCC2)C1 (stereo unspecified) | IGROV1 ovarian | TGI | 46 µM
CC(=NCC(=O)O)c1ccccc1 | IGROV1 ovarian | TGI | > 100 µM
CC(=O)Nc1ccc2c(C3=C(c4cn(C)c5ccccc45)C(=O)NC3=O)cn(C)c2c1 | IGROV1 ovarian | TGI | > 25 µM
O=C(O)c1sccc1O | IGROV1 ovarian | TGI | > 100 µM
CC1SC(c2ccc(Cl)c(Cl)c2)N(NC(=O)C(O)c2ccccc2)C1=O (stereo unspecified) | IGROV1 ovarian | TGI | 74.6 µM

###

Entries and their TGI values follow.
test system: ACHN renal; assay: NCI tumour cell line growth inhibition, 48 h
measure.name: TGI

compound | target.desc | reported
NC(Cc1c[nH]c2ccccc12)P(=O)(O)O (stereo not given) | ACHN renal | > 100 µM
CCc1nc(N)nc(N)c1-c1ccc(Cc2ccccc2)c([N+](=O)[O-])c1 | ACHN renal | > 61.2 µM
COc1cc2c(cc1OCCCNC(=O)/C=C1/C[C@H]3C=Nc4cc(OCc5ccccc5)c(OC)cc4C(=O)N3C1)NC(=O)[C@@H]1CCCN1C2=O | ACHN renal | > 100 µM
CC1SC(c2ccc(Cl)c(Cl)c2)N(NC(=O)C(O)c2ccccc2)C1=O (stereo not given) | ACHN renal | > 100 µM
O=S(=O)(O)c1ccc(N=Nc2ccc(N=Nc3c(O)c(S(=O)(=O)O)cc4cc(S(=O)(=O)O)ccc34)cc2)cc1 | ACHN renal | > 100 µM
c1ccc(CSc2nnc3c4c5c(sc4nc(-c4cccnc4)n23)CCCCCC5)cc1 | ACHN renal | 10.5 µM
CC1=Nn2c(nnc2-c2ccc(Cl)cc2)NC(C)(C)C1 | ACHN renal | > 100 µM
c1ccc(CSSSCc2ccccc2)cc1 | ACHN renal | 29.1 µM
COC(=O)c1c2c(c3[nH]c4ccccc4c3c1C(=O)OC)C(=O)C1=C(C2=O)C2(Cl)C(Cl)C(Cl)C1(Cl)C2(Cl)Cl (stereo not given) | ACHN renal | 4.6 µM
Oc1ccc(CCl)c2cccnc12 | ACHN renal | > 100 µM

###

# reported TGI; entries follow
tested on: MDA-N; assay: NCI tumour cell line growth inhibition, 48 h

compound | TGI
COCOc1cc(OC)ccc1C/C=N/O | > 100 µM
O=c1c2ccccc2n2c(=S)[nH]nc2n1-c1ccccc1 | > 100 µM
CCOC(=O)Cn1nc2ccc(Nc3c(C)[n+]([O-])c4cc(F)c(OCC)cc4[n+]3[O-])cc2n1 | > 100 µM
CN(C)CCNC(=O)c1cc([N+](=O)[O-])cn1C | > 100 µM
O=c1ccn(C2OC(COC3CCCCO3)C(OC3CCCCO3)C2OC2CCCCO2)c(=O)n1-c1ccccc1 (stereo not given) | > 100 µM
CC(O)(CCCCCl)c1nc2ccccc2s1 (stereo not given) | > 100 µM
CC(C)OP(=O)(c1ccccc1)c1ccc2c(c1)OCCOCCOCCOCCO2 (stereo not given) | > 100 µM
O=C1CC2(CCC(O)(c3cccc4ccccc34)C(C(=O)c3cccc4ccccc34)C2)C(=O)c2ccccc2N1 (stereo not given) | > 100 µM
CC(C)(C)N/N=C(\C(=O)Nc1ccc([N+](=O)[O-])cc1[N+](=O)[O-])c1nc2ccc([N+](=O)[O-])cc2[nH]c1=O | > 100 µM
COC(=S)OC1CC(n2cnc3c(=O)[nH]cnc32)OC1CO[Si](C)(C)C(C)(C)C (stereo not given) | > 100 µM

###

tested on: OVCAR-3 ovarian; test: NCI tumour cell line growth inhibition, 48 h
Readings of TGI for the listed molecules
measure.name: TGI

molecule | target.desc | reported
O=C1OC(c2ccccc2)=N/C1=C\c1ccc(F)cc1 | OVCAR-3 ovarian | > 100 µM
Clc1ccc2oc(CCC3CCCCC3)nc2c1 | OVCAR-3 ovarian | 36.1 µM
CCOC(=O)c1c(-c2ccccc2)oc(=O)c(Cc2cccc3cccnc23)c1-c1ccccc1 | OVCAR-3 ovarian | > 10 µM
[N-]=[N+]=Nc1ccc2c(c1)Sc1ccccc1N2CCCCN1CCN(Cc2ccc(C(=O)c3ccccc3)cc2)CC1 | OVCAR-3 ovarian | > 100 µM
CC[C@]1(Cc2ccc(OC)c(OC)c2)[C@@H]2C[C@@H](C(=O)OC)ON2O[C@H](OC2CCCC2(c2ccccc2)c2ccccc2)[C@@H]1OC(C)=O (stereo partly specified) | OVCAR-3 ovarian | > 100 µM
COc1cccc2cc(N(C)c3ncnc4ccccc34)ccc12 | OVCAR-3 ovarian | < 0.0107 µM
O=c1ccn(C2OC(COC3CCCCO3)C(OC3CCCCO3)C2OC2CCCCO2)c(=O)n1-c1ccccc1 (stereo unspecified) | OVCAR-3 ovarian | > 100 µM
O=C(/C=C/c1cccc([N+](=O)[O-])c1)c1cccnc1 | OVCAR-3 ovarian | 68.8 µM
Oc1ccc(-c2cn3ccsc3n2)cc1O | OVCAR-3 ovarian | 46.4 µM
COc1ccc2c(=O)c(-c3cc4c(cc3OC)OCO4)coc2c1 | OVCAR-3 ovarian | > 100 µM
O=[N+]([O-])c1ccc2scc3c4ccccc4nc-3c2c1 | OVCAR-3 ovarian | 1.63 µM
CC(=O)OCC1OC(N2C(=S)N[C@H]([C@@H](O)[C@H](O)[C@H](O)CO)[C@H]2O)C(OC(C)=O)C(OC(C)=O)C1OC(C)=O (stereo partly specified) | OVCAR-3 ovarian | > 100 µM
O=C(Nc1ccc(Oc2cccc(Cl)c2)c(Cl)c1)c1cnccn1 | OVCAR-3 ovarian | 1.16 µM
CCOCCOc1ccc(OCCOCC)cc1 | OVCAR-3 ovarian | > 49.3 µM
O=C(CNc1c(Cl)cccc1Cl)Nc1ccc(-c2nc3ccccc3s2)cc1 | OVCAR-3 ovarian | 3.73 µM
CC1(C)CC(=O)c2c(nc3c(ccc4ccccc43)c2-c2ccc(NC(=O)CCCC(=O)Nc3ccc(-c4c5c(nc6c4ccc4ccccc46)CC(C)(C)CC5=O)cc3)cc2)C1 | OVCAR-3 ovarian | > 100 µM
COc1cccc(CC(C)N)c1 (stereo unspecified) | OVCAR-3 ovarian | > 100 µM
CC(C)(C)c1ccc2c(c1)C(=O)c1ccccc1C2=O | OVCAR-3 ovarian | > 100 µM
O=C1CCC(c2nc3cc(Cl)ccc3o2)C(=O)N1 (stereo unspecified) | OVCAR-3 ovarian | > 100 µM
COc1cc2c(cc1OC)[Se]c1cc(OC)c(OC)cc1[Se]2 | OVCAR-3 ovarian | > 100 µM
[N-]=[N+]=NCCCn1c2c(c3ccccc3c1=O)C(=O)c1cc(Br)ccc1-2 | OVCAR-3 ovarian | > 100 µM

###

test system: M14 melanoma; assay: NCI tumour cell line growth inhibition, 48 h

molecule | TGI
COC(=O)C([C@H]1CC[C@H](OCc2ccccc2)[C@@]1(O)COCc1ccccc1)C(C)(O)CCc1ccccc1 (stereo partly specified) | 22.9 µM
COc1cc(CCCl)c(CC2=NCCc3cc(OC)c(OC)cc32)cc1OC | > 100 µM
COc1ccc(-c2c(C#N)c(N)nc3c2COc2ccc(F)cc2-3)cc1OC | 98.9 µM
c1ccc(CSSSCc2ccccc2)cc1 | > 100 µM
CCn1ncc(Oc2c(Cl)cc(N)cc2Cl)c(Cl)c1=O | > 100 µM
COc1ccc(Cc2nc3cc([N+](=O)[O-])ccc3n2C[C@@H]2CCCN3CCCCC23)cc1 (stereo partly specified) | 27.2 µM
FC(F)(F)c1cccc2ns[s+]c12 | > 100 µM
O=C1C(c2ccccc2)=[N+]([O-])c2cc([N+](=O)[O-])c(/C(Cl)=C/c3ccccc3)cc21 | 40.9 µM
Oc1ccc(CCl)c2cccnc12 | > 100 µM
COC(=O)CCC1(NS(=O)(=O)c2ccc(C)cc2)CCC(C(C)(C)C)CC1 (stereo unspecified) | 33.7 µM
CCOC(=O)N1C(=O)C2C3C=CC(C2C1=O)C1C2C(=O)N(C(=O)OCC)C(=O)C2C31 (stereo unspecified) | > 100 µM
COc1cc2c(cc1OCCCNC(=O)/C=C1/C[C@H]3C=Nc4cc(OCc5ccccc5)c(OC)cc4C(=O)N3C1)NC(=O)[C@@H]1CCCN1C2=O | > 100 µM
CCCCCCCC/C=C\CCCCCCC/C=C1/C[C@](/C=C/C(=O)OC)(CO)OC1=O | 11.6 µM
CN(CCNC(=O)c1nn(-c2ccccc2)c2c1ccc1ccccc12)CCNC(=O)c1nn(-c2ccccc2)c2c1ccc1ccccc12 | 3.85 µM
O=C(O)COc1cc(-c2ccccc2)nc2ccc(F)cc12 | > 100 µM
c1cc2sc1CSCCSCCSC2 | > 100 µM
N.N.NCCCCCCN.O=C([O-])CCl.O=C([O-])CCl.O=C([O-])CCl.O=C([O-])CCl.[Pt+4].[Pt+4] | > 50 µM
CC(C)(C)N/N=C(\C(=O)Nc1ccc([N+](=O)[O-])cc1[N+](=O)[O-])c1nc2ccc([N+](=O)[O-])cc2[nH]c1=O | > 100 µM
CO/C(N)=C(\C#N)N=Cc1cccnc1 | > 100 µM
COCOc1cc(OC)ccc1C/C=N/O | > 100 µM
COc1ccc2c(=O)c(-c3cc4c(cc3OC)OCO4)coc2c1 | > 100 µM
Oc1c(Cl)cc(Cl)c2ccc(Cn3cc(-c4cc(F)cc(F)c4)nn3)nc12 | 4.92 µM
COc1ccc(OC)c(NC(=O)c2c(Cl)c(Cl)c(Cl)c(Cl)c2-c2nc3ccccc3[nH]2)c1 | > 100 µM
CC(C)=NNc1ncnc2c1ncn2C1OC(CO)C(O)C1O (stereo unspecified) | > 100 µM
Cc1cc(-c2c(Br)cc(C(=O)O)n2C)on1 | > 100 µM
COC1/C=C/C(C)C(OC)CC(O)/C=C/C(C)C(C(C)C(OC)C(C)CCC(=O)C(C)C(C/C=C/N(C)C=O)OC)OC(=O)/C=C/C=C(\C)CC(OC)CC2=CC(=O)O[C@@H](C(C)C(OC)C1)[C@H]2O (stereo partly specified) | 0.175 µM
CC(=O)/C=C\C1CC2C=CC1C2 (stereo unspecified) | > 100 µM
CCc1c(C)[nH]c2c1/C(=N/N=C1\CCCc3[nH]c(C)c(CC)c31)CCC2 | 41.2 µM
CC1(C(=O)O)CCC(C(=O)O)C(C)(C)O1 (stereo unspecified) | > 100 µM
CSc1nc(=Nc2ccccc2)sn1-c1ccccc1 | 22.5 µM
COc1cnc2c(c1)C(=O)c1c-2n(CCCBr)c(=O)c2cc([N+](=O)[O-])ccc12 | 2.12 µM
CCOC(=O)/C=C(/OCC)[C@@H]1C(C(=O)c2ccc(Cl)cc2)[C@H]1/C(=C\C(=O)OCC)OCC (stereo partly specified) | > 100 µM
Cc1ccc(S(=O)(=O)NCCN(CCNS(=O)(=O)c2ccc(C)cc2)S(=O)(=O)c2ccc(C)cc2)cc1 | > 100 µM
COc1ccccc1-c1cc(=O)c2ccccc2n1C1CC1 | 16.2 µM
CC1(C)C(=NN=C(N)N)C(C)(C)C1=NN=C(N)N | > 100 µM
COc1ccc(NC(=S)N/N=C/c2c(C)n(C)n(-c3ccccc3)c2=O)cc1 | > 100 µM
Cc1cccc(NC2=C(Cl)C(=O)N(Cc3ccc(Cl)cc3)C2=O)c1 | 19.9 µM
O=S(=O)(c1ccccc1)C1CN2OC1(S(=O)(=O)c1ccccc1)CC21CCCCC1 (stereo unspecified) | > 100 µM
Cc1c2nc3ccccc3sc-2cc(=O)c1C | > 100 µM
COC(=O)CSC1CC(=O)c2c(Cl)sc(Cl)c21 (stereo unspecified) | > 100 µM
C/C=C\C(CC(=O)O)CN1CCC2=C(C1)C(S(=O)(=O)C(F)(F)F)c1ccccc12 (stereo unspecified) | > 100 µM
